Sourced from patent US7868020B2

# assayed system: Alpha 1A (Homo sapiens)
# Construct: expressed in transfected cells; host or cells: NIH-3T3
# Sequence (P35348 whole entry): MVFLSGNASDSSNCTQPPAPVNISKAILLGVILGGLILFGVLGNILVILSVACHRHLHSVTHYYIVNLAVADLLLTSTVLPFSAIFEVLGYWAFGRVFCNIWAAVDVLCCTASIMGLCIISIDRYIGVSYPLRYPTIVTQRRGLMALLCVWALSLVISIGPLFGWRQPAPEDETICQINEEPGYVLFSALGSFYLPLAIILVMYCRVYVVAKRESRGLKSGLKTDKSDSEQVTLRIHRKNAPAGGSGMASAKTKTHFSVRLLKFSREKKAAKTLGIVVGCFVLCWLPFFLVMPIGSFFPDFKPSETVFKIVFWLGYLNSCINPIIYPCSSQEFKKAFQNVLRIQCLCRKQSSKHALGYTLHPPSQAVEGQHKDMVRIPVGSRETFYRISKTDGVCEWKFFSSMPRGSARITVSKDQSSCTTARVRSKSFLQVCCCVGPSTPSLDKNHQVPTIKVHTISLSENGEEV
# assay summary: RSAT assay, Alpha 1A receptor
# Assay type: cell-based
# assay context: RSAT, transfected NIH-3T3 cells
endpoint name: EC50 (nM)

A = Cc1[nH]cnc1CC1CCc2cccnc2C1 (centres unmarked) [drawing 15]
B = Cc1[nH]cnc1CC1CCc2cccnc2C1 (centres unmarked) [drawing 16]
Ask: # query: argmin of EC50 over A and B Pick one; state its label.
Result: B

====

# assayed system: Alpha 2B (Homo sapiens, UniProt P18089)
# Sequence (P18089 1-450): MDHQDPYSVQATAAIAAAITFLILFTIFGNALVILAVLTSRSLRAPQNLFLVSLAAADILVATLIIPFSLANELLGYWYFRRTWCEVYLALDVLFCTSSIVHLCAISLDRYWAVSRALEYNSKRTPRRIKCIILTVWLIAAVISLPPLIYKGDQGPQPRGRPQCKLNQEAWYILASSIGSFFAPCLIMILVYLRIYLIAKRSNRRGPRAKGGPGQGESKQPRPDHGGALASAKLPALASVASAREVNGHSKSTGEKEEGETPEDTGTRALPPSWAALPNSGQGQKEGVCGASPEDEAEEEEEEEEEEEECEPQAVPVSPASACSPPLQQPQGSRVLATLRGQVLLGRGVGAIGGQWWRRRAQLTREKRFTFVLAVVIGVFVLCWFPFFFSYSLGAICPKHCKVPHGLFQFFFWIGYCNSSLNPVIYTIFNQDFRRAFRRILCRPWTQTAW
# assay summary: RSAT assay, Alpha 2B receptor
# assay context: RSAT, transfected NIH-3T3 cells, coexpressed Gq/i5
endpoint name: EC50 (nM)

a = Cc1[nH]cnc1CC1CCc2cccnc2C1 (centres unmarked) [drawing 16]
b = Cc1[nH]cnc1CC1CCc2cccnc2C1 (centres unmarked) [drawing 15]
Ask: Pick one: a or b . Which one has the lower reported EC50? Reply briefly: the label of your chosen item.
Result: a
(a: 37 nM, b: 57 nM)
